Biological target: MaxL homodimer (Homo sapiens, UniProt P61244 1-160)
Sequence (P61244 whole entry): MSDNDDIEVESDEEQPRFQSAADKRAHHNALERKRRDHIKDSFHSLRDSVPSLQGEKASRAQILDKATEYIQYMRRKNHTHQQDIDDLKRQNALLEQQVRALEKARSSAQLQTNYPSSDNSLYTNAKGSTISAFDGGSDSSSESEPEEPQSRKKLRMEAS
Assay: universal protein-binding microarray (PBM); PBS-based mixture, 10 nM His-tagged protein dimer, 2% milk, 200 ng/uL BSA, 50 ng/uL salmon testes DNA, 0.02% TX-100; detection with Alexa 488 anti-His antibody;; high values mean tight binding;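 also: fluorescence intensity normalized to that of the highest-ranked 8-mer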
Conditions: protein: recombinant; tags: C-terminal His-tag (pET21a); chain copies: 2; dsDNA, one strand shown
In all, about 33,000 sequences were measured (“normalized occupancy”: median about 0.075, highest 2% from about 0.095 on). The sample as a whole holds a higher share of the highest values than the screen did.
recorded.metric: binding signal (normalized occupancy)
All answers are understood in normalized occupancy, so give the number only.

## Input Which binding signal is reported for this sequence? `GTTAGACA`
## Output 0.0808

## Input // binding signal lookup, key: `TAACTAGA`
## Output 0.0765

## Input Looking for the measured binding signal of `CGCGTGAC` , can you help?
## Output 0.134

## Input Data request, read-out binding signal, for `CTTATAGA`
## Output 0.0769

## Input What binding signal value was documented for this sequence, `ACTCATAC` ?
## Output 0.074

## Input Value lookup for binding signal; key = `ACGTGGAC`
## Output 0.106

## Input Reported binding signal, sequence `GAGAACTA` : ____
## Output 0.0732

## Input What measured binding signal goes with `AACGCTAG` ?
## Output 0.0726

* * *

Molecular target: MaxL homodimer (Homo sapiens, UniProt P61244 1-160)
Assay: universal protein-binding microarray (PBM); PBS-based mixture, 10 nM His-tagged protein dimer, 2% milk, 200 ng/uL BSA, 50 ng/uL salmon testes DNA, 0.02% TX-100; detection with Alexa 488 anti-His antibody;; high values mean tight binding;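 also: fluorescence intensity normalized to that of the highest-ranked 8-mer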
Conditions: protein: recombinant; tags: C-terminal His-tag (pET21a); chain copies: 2; dsDNA, one strand shown
Over roughly 33,000 sequences, “normalized occupancy” has its median near 0.075; the highest 2% begin near 0.095. The list comes from a sample in which the highest values are over-represented; it also holds close analogues and randomly drawn sequences.
Listing of entries alongside the reported binding signal.
Give a bare numeral; the unit normalized occupancy is implied.

CAAATGGG | 0.0805
ACACATCC | 0.0784
CTAATATA | 0.0824
ATGACTTG | 0.0818
AATAACGT | 0.0823

## Input Give recorded binding signal with MaxL homodimer (Homo sapiens, UniProt P61244 1-160) for the following sequence: `ACGTAGCC`
## Output 0.0725

## Input Give recorded binding signal with MaxL homodimer (Homo sapiens, UniProt P61244 1-160) for the following sequence: `CCACACGA`
## Output 0.0959

## Input Entry `CACATGGG` , system MaxL homodimer (Homo sapiens, UniProt P61244 1-160): what binding signal was measured?
## Output 0.166

## Input For MaxL homodimer (Homo sapiens, UniProt P61244 1-160), provide binding signal of `ACACGCCG` please.
## Output 0.1

## Input Form entry - test system: MaxL homodimer (Homo sapiens, UniProt P61244 1-160); read-out: binding signal; sequence: `ACGTTGAA`
## Output 0.083

## Input Provide the documented binding signal with MaxL homodimer (Homo sapiens, UniProt P61244 1-160) as the system for `AAACACGG`
## Output 0.0741

## Input Notebook entry, MaxL homodimer (Homo sapiens, UniProt P61244 1-160) assay: binding signal of `AGCTGCCA` = ?
## Output 0.0736

Entry source: paper PMC4242493
